The following variants are listed with their measured normalized RNA/DNA level with ligand (log10) values.
B1: library; a variant is named by its letters at N, in order (parent)
chain: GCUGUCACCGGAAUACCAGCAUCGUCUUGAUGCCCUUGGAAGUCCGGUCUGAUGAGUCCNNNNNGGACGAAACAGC

Variants of: B1
assay name: normalized RNA/DNA level with ligand (relative to sTRSVctl = 100) (log10 (% of sTRSVctl)); higher = less ribozyme self-cleavage, higher mRNA level
recorded conditions: ligand concentration (+) RNA-Seq: 5 mM, HEK293T, reporter: mCherry (pCS4076), ligand present: yes

Recorded results for 3 variants are shown here.
1) AAGCG: 2
2) CGAAC: 1.96
3) UACAC: 1.98

[in] Using known records, supply normalized RNA/DNA level with ligand (log10) for `UACUG`
[out] 1.98

[in] Give the measured normalized RNA/DNA level with ligand (log10) for `CGACU`
[out] 2

[in] State its normalized RNA/DNA level with ligand (log10) for this variant: `ACCAU`
[out] 1.99

Ref: the supplement of paper PMC6757056
